- MEASUREMENT DESCRIPTION: Time-course cytotoxicity in infected C2C12 cells
- Format: cell-based, murine
- EXPERIMENTAL PARAMETERS: mouse
Mark each entry true (1) if its CC50 at 48 h sits below 300 nM, and false (0) for all others.

# MOLECULE, GROUP
data = [
    ("COc1cc(OC)c(/C=C/C(=O)/C=C/c2c(OC)cc(OC)cc2OC)c(OC)c1", "false (0)"),
]

Input line: Please indicate whether the reported CC50 at 48 h of COc1ccc(/C=C/C(=O)/C=C/c2ccc(OC)c(OC)c2)cc1OC is strictly below 300 nM.
Output line: true (1)

Input line: Please indicate whether the reported CC50 at 48 h of O=C(/C=C/c1ccc(Cl)cc1)/C=C/c1ccc(Cl)cc1 is strictly below 300 nM.
Output line: true (1)

Input line: Please indicate whether the reported CC50 at 48 h of O=C(Cn1ccnc1[N+](=O)[O-])NCc1ccccc1 [BZ, benznidazole, reference compound] is strictly below 300 nM.
Output line: true (1)

Input line: Please indicate whether the reported CC50 at 48 h of COc1cc(/C=C/C(=O)CC(=O)/C=C/c2ccc(O)c(OC)c2)ccc1O [CUR, reference compound] is strictly below 300 nM.
Output line: false (0)

Input line: Please indicate whether the reported CC50 at 48 h of COc1ccc(/C=C/C(=O)/C=C/c2ccc(OC)cc2)cc1 is strictly below 300 nM.
Output line: true (1)

Input line: Please indicate whether the reported CC50 at 48 h of O=C(/C=C/c1ccccc1)/C=C/c1ccccc1 is strictly below 300 nM.
Output line: true (1)

* * *

- MEASUREMENT DESCRIPTION: Cytotoxicity in infected C2C12 cells after 72 h
- Format: cell-based, murine
- EXPERIMENTAL PARAMETERS: mouse, C2C12 cells infected with T. cruzi Sylvio X10/7 strain
Mark each entry label 1 if its CC50 at 72 h sits below 3 µM, and label 0 for all others.

Some solved entries appear below for comparison.
# COMPOUND, GROUP
measured = [
    ("COc1ccc(/C=C/C(=O)/C=C/c2ccc(OC)cc2)cc1 [DBA 2]", "label 1"),
    ("O=C(/C=C/c1ccccc1)/C=C/c1ccccc1 [DBA 1, (1E,4E)-1,5-diphenylpenta-1,4-dien-3-one]", "label 0"),
    ("COc1cc(/C=C/C(=O)CC(=O)/C=C/c2ccc(O)c(OC)c2)ccc1O [CUR, reference compound]", "label 0"),
]

Input line: Please indicate whether the reported CC50 at 72 h of COc1cc(OC)c(/C=C/C(=O)/C=C/c2c(OC)cc(OC)cc2OC)c(OC)c1 [DBA 4] is strictly below 3 µM.
Output line: label 1

Input line: Please indicate whether the reported CC50 at 72 h of COc1ccc(/C=C/C(=O)/C=C/c2ccc(OC)c(OC)c2)cc1OC [DBA 3] is strictly below 3 µM.
Output line: label 1

Input line: Please indicate whether the reported CC50 at 72 h of O=C(/C=C/c1ccc(Cl)cc1)/C=C/c1ccc(Cl)cc1 [DBA 5] is strictly below 3 µM.
Output line: label 0

Input line: Please indicate whether the reported CC50 at 72 h of O=C(Cn1ccnc1[N+](=O)[O-])NCc1ccccc1 [BZ, benznidazole, reference compound] is strictly below 3 µM.
Output line: label 0
